Recorded residual rate values for a group of compounds are listed next.
Assay: Metabolism in human liver microsomes
Type: in vitro ADME
Settings: incubation at 37° C. for 60 minutes, pooled human liver microsomes, NADPH generating system
Where a name gives a salt, the structure may show the parent alone.
Assay metric: residual rate

Compound: OC1CN(CCCOCCc2cccc3sccc23)C1 [Example 12, hydrochloride]
Assay metric: residual rate
Obs value: 83%

Compound: OC1CCN(CCOCCc2ccc3ccccc3c2)C1 (centres unmarked) [Example 69, oxalate]
Assay metric: residual rate
Obs value: 74%

Compound: NC1CCN(CCCOCCc2ccc3sccc3c2)C1 (centres unmarked) [Example 74, oxalate]
Assay metric: residual rate
Obs value: 71%

Compound: OC1CCN(CCCOCCc2ccc3occc3c2)C1 (centres unmarked) [Example 61, hydrochloride]
Assay metric: residual rate
Obs value: 74%

Compound: OC1CN(CCCOCCc2ccc3sccc3c2)C1 [Example 10, hydrochloride]
Assay metric: residual rate
Obs value: 70%

Compound: OC1CN(CCCOCCc2csc3ccccc23)C1 [Example 14, hydrochloride]
Assay metric: residual rate
Obs value: 75%

Compound: O[C@@H]1CN(CCOCCc2ccc3sccc3c2)C[C@@H]1O [Example 71, hydrochloride]
Assay metric: residual rate
Obs value: 80%

Compound: OC1CN(CCCOCCc2ccc3ccsc3c2)C1 [Example 4, hydrochloride]
Assay metric: residual rate
Obs value: 80%

The reported numbers originate from patent US7468443B2.
